measured-target: MNK1 (Homo sapiens, UniProt Q9BUB5)
Sequence (Q9BUB5 whole entry): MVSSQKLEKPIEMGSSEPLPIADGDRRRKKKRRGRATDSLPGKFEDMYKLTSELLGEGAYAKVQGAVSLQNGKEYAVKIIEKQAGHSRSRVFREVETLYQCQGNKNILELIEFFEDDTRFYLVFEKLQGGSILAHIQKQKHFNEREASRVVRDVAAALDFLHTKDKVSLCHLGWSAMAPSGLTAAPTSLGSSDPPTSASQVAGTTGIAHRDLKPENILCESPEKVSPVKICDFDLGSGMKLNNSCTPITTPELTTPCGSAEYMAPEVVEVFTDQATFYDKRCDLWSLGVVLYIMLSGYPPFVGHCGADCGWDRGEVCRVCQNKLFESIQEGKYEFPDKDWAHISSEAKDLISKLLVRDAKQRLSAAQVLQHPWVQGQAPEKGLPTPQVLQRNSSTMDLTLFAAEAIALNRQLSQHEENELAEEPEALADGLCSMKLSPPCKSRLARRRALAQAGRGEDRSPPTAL
metric-name: IC50 (nM)
Report as a plain number; the unit nM is understood.

stdin: API: value(readout= IC50, system= MNK1 (Homo sapiens, UniProt Q9BUB5), query= Cc1cc(Nc2ncnn3cc(OCCN4CCC(F)(F)C4)c(C)c23)c(=O)n2c1C(=O)NC21CCCC1 [JDB153] )
stdout: 26.6
